test system: PBMCs from YF-17DD vaccinees; type: cell-based, human
Property: ELISPOT Max

compound_string=CC(C)C[C@H](NC(=O)[C@H](C)NC(=O)[C@H](CCC(=O)O)NC(=O)[C@H](Cc1ccccc1)NC(=O)[C@H](CCC(=O)O)NC(=O)[C@H](CC(C)C)NC(=O)[C@H](Cc1ccc(O)cc1)NC(=O)[C@H](CCCNC(=N)N)NC(=O)[C@H](C)NC(=O)CN)C(=O)NCC(=O)N[C@@H](Cc1ccccc1)C(=O)N[C@@H](CC(C)C)C(=O)N[C@@H](CC(N)=O)C(=O)N[C@@H](CCC(=O)O)C(=O)O property="ELISPOT Max" value_measured="1022 SFC/10^6 PBMC"
compound_string=CC[C@H](C)[C@H](NC(=O)CNC(=O)[C@H](CCCCN)NC(=O)[C@H](CC(N)=O)NC(=O)[C@@H](NC(=O)[C@H](C)NC(=O)[C@H](C)NC(=O)[C@@H](NC(=O)[C@H](CC(C)C)NC(=O)[C@H](CC(=O)O)NC(=O)[C@H](CC(=O)O)NC(=O)[C@H](C)N)[C@@H](C)O)[C@@H](C)CC)C(=O)N[C@@H](CC(C)C)C(=O)N[C@H](C(=O)N[C@H](C(=O)O)[C@@H](C)O)C(C)C property="ELISPOT Max" value_measured="30 SFC/10^6 PBMC"
